Melting temperature (Tm) shift values for the compounds below.
Target: FES Catalytic Domain (Homo sapiens)
Construct: For all of them, we expressed and purified the catalytic domain separately; His-tag; made in house; host or cells: Escherichia coli
Sequence (P07332 561-822 limits assumed): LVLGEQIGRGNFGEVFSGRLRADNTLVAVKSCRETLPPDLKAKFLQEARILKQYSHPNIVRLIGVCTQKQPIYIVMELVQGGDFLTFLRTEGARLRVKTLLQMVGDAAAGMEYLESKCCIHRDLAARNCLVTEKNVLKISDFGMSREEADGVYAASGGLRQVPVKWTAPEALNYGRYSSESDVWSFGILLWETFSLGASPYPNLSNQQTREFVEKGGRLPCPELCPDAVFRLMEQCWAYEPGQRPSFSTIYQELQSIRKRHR
Assay: Differential Scanning Fluorimetry (DSF) Tm shift
Format: binding
Conditions: 2 µM protein, 10 µM inhibitor, average of 3 experiments, each in duplicate
Give just the numeric value; degrees Celcius need not be written.

COc1ccc2c(c1)c1c3c(c4c5ccccc5n(C)c4c1n2CC(O)CN(C)C)C(=O)NC3=O.Cl (centres unmarked) [Gö 7874, Hydrochloride]    0.3
COc1cc2ncnc(Nc3ccc(Oc4ccccc4)cc3)c2cc1OC    0.1

Next compound, Melting temperature (Tm) shift to be filled in.
Give recorded Melting temperature (Tm) shift. `O=C1NC(=O)c2c1c1c3ccccc3n3c1c1c2c2ccccc2n1C1CCC3O1`
16.0
